Measured inhibition of individual entries
# test-target: Glucose transporter (Leishmania mexicana)
# assay-info: ST_JUDE_LEISH: Cytotoxicity at 2uM final concentration against transgenic Leishmania Mexicana promastigotes LmGT2 that are glucose transport deficient and complemented with the L. Mexicana glucose transporter 2. Activity is measured by DNA content using SYBR green in vitro
# Assay type: functional
Response body: numeric value in %, unit text excluded.

OC(c1ccccc1)C1CN(CCc2ccccc2)CCC1(O)c1ccccc1 (stereo not given) :: -1.32
COc1ccc(-c2nc(NC(=O)Cc3coc4cc(OC)ccc34)sc2C)cc1 :: -0.72
NC(=O)c1ccc(C(=O)Nc2cccc(-c3csc(-c4nc5ccccc5[nH]4)c3)c2)cc1 :: 8.06
Cc1cccc(NC(=O)NCc2ccccc2)n1 :: 2.38
Cc1cccc2nc(-c3cccc(-c4cccc(CNCCNC(=O)c5ccnn5C)c4)c3)[nH]c12 :: -2.41

stdin: Quickly give me recorded inhibition for "O=C(NC1CCN(CCN2CCc3ccccc3CC2)CC1)c1ccc(-c2ccc(C(F)(F)F)cc2)cc1"
stdout: 4.56

stdin: Quickly give me recorded inhibition for "C=CCN1C(=O)CN(S(=O)(=O)c2ccc(-n3nc(C)cc3C)cc2)C1=S"
stdout: 2.49

stdin: Quickly give me recorded inhibition for "Cc1cc(N/N=C/c2cccc([N+](=O)[O-])c2)c2ccc(F)cc2n1"
stdout: 0.94

stdin: Quickly give me recorded inhibition for "CC(=O)Nc1ccc(C(=O)Nc2ccc(-c3csc(-c4nc5ccccc5[nH]4)c3)cc2)cn1"
stdout: 0.75

stdin: Quickly give me recorded inhibition for CC(C)(C)C1CC(=O)CC2C(=O)N(c3ccc(Br)cc3)C(=O)C21 (stereo not given)
stdout: -1.64
